// data source = patent US20180186796A1

# TEST_SUMMARY: Microsomal stability assay
# CONDITION: percentage of unmodified parent drug, human liver microsomes 60 min
READOUT: Metabolic Stab. (%)

                                   molecule  unit_of_measure  recorded_number
0  Oc1cccc(Nc2nc(SC3CCCC3)nc3c2cnn3CC(Cl)c2ccccc2)c1 (stereo not drawn) [Si330]                %               91
1    CSc1nc(Nc2ccccc2)c2cnn(CCc3ccccc3)c2n1                %               90
2  Fc1cccc(Nc2nc(SC3CCCC3)nc3c2cnn3CC(Cl)c2ccccc2)c1 (stereo not drawn) [drawing 179]                %               95

----------
# TEST_SUMMARY: Microsomal stability assay
# CONDITION: percentage of unmodified drug, Table 8
Some molecules, each annotated with its measured Metabolic Stab. %.
READOUT: Metabolic Stab. % (%)

>>> print(df.to_string())
                                   molecule  recorded_number
0  CSc1nc(NCCc2ccccc2)c2cnn(CC(Cl)c3ccccc3)c2n1 (centres unmarked) [Si35]             96.2
1  CSc1nc(Nc2cccc(Cl)c2)c2cnn(CCc3ccccc3)c2n1 [Si214]             99.0
2  Clc1ccccc1CNc1ncnc2c1cnn2CC(Cl)c1ccc(Br)cc1 (centres unmarked) [Si221]             95.2
3  CSc1nc(Nc2cccc(Cl)c2)c2cnn(CC(Cl)c3ccccc3)c2n1 (centres unmarked) [Si83]             91.1
4  CSc1nc(Nc2cccc(Br)c2)c2cnn(CC(C)c3ccccc3)c2n1 (centres unmarked) [Si278]             95.1
5  CSc1nc(N(C(=O)OCCN2CCN(C)CC2)c2cccc(Br)c2)c2cnn(CC(C)c3ccccc3)c2n1 (centres unmarked) [proSi278 (A)]             99.9
6  ClC(Cn1ncc2c(Nc3cccc(Br)c3)nc(SCCN3CCOCC3)nc21)c1ccccc1 (centres unmarked) [Si306]             97.2
7  CN1CCN(CCOC(=O)N(Cc2ccccc2)c2ncnc3c2cnn3CC(Cl)c2ccccc2)CC1 (centres unmarked) [proS13]             86.4

----------
# TEST_SUMMARY: Water solubility assay
# CONDITION: water, 20 °C, thermodynamic from solid
READOUT: log10 of solubility at 24 h (log10 of the value in µM)

In [3]: df
Out[3]:
                                    molecule  recorded_number
 0  CN1CCN(CCOC(=O)N(Cc2ccccc2Cl)c2ncnc3c2cnn3CC(Cl)c2ccc(Br)cc2)CC1 (stereo not shown) [proSi221]             0.49
 1  CSc1nc(N(C(=O)OCCN2CCN(C)CC2)c2cccc(Cl)c2)c2cnn(CC(Cl)c3ccccc3)c2n1 (stereo not shown) [proSi83]             0.85
 2  CSc1nc(N(C(=O)OCCN2CCN(C)CC2)c2cccc(Br)c2)c2cnn(CC(C)c3ccccc3)c2n1 (stereo not shown) [proSi278 (A)]             1.06
 3  ClC(Cn1ncc2c(Nc3cccc(Br)c3)nc(SCCN3CCOCC3)nc21)c1ccccc1 (stereo not shown) [Si306]             0.82
 4  CSc1nc(N(CCc2ccccc2)C(=O)OCCN2CCN(C)CC2)c2cnn(CC(Cl)c3ccccc3)c2n1 (stereo not shown) [proSi35]             2.26
 5  CN1CCN(CCOC(=O)N(Cc2ccccc2)c2ncnc3c2cnn3CC(Cl)c2ccccc2)CC1 (stereo not shown) [proS13]             1.55
 6  CCC(CN1CCN(C)CC1)OC(=O)N(c1cccc(Br)c1)c1nc(SC)nc2c1cnn2CC(C)c1ccccc1 (stereo not shown) [proSi278 (C)]             0.48
 7  CSc1nc(Nc2cccc(Cl)c2)c2cnn(CC(Cl)c3ccccc3)c2n1 (stereo not shown) [Si83]            -0.53
 8  CSc1nc(N(C(=O)OCCN2CCN(C)CC2)c2cccc(Cl)c2)c2cnn(CCc3ccccc3)c2n1 [proSi214]             1.05
 9  CSc1nc(NCCc2ccccc2)c2cnn(CC(Cl)c3ccccc3)c2n1 (stereo not shown) [Si35]            -0.78
10  CN1CCN(CCOC(=O)N(c2cccc(Br)c2)c2nc(SCCN3CCOCC3)nc3c2cnn3CC(Cl)c2ccccc2)CC1 (stereo not shown) [proSi306]             1.07
11  CN1CCN(CCOC(=O)N(c2ccccc2)c2ncnc3c2cnn3CC(Cl)c2ccc(Br)cc2)CC1 (stereo not shown) [proSi223]             1.85
12  CSc1nc(N(C(=O)OC(C)CN2CCN(C)CC2)c2cccc(Br)c2)c2cnn(CC(C)c3ccccc3)c2n1 (stereo not shown) [proSi278 (B)]             0.73
